# protocolText: recombinant barcode read abundance after kanamycin selection (control-corrected) (log10(CPM+1)); higher = more efficient recombination; sequences stand for … in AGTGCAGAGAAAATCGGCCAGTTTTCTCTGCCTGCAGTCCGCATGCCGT…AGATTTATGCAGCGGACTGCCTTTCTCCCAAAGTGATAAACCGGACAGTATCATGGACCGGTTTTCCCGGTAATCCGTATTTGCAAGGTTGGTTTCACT; site = the 11-nt target
measure: recombinant barcode read abundance (log10)
Respond using a number only.

                               sequencecode  measvalue
0  GGGTCTTCTTGGGTTCTAACCTGTTGCAT (site GGGACTTCTAT)     0.0343

Prompt: # return recorded recombinant barcode read abundance (log10) for entry ATACAATCTTGGGTTCTAACCTGTTGCCT (site TTACAATCTAG)
Response: 0.202

Prompt: Give the measured recombinant barcode read abundance (log10) for AATAAGTCTTGGGTTCTAACCTGTTGCAT (site AATAAGTCTAT)
Response: 0.385

Prompt: Supply recorded recombinant barcode read abundance (log10) for ATACAATCTTGGGTTCTAACCTGTTGCCT (site CTACAATCTAG) here.
Response: 0.127

Prompt: Give recorded recombinant barcode read abundance (log10). ACGATTCCTTGGGTTCTAACCTGTTGCTT (site ACGAATCCTAA)
Response: 0.0108

* * *

# protocolText: recombinant UMI read abundance after kanamycin selection (control-corrected) (log10(CPM+1)); higher = more efficient recombination; extreme values may be limits of the assay; sequences stand for … in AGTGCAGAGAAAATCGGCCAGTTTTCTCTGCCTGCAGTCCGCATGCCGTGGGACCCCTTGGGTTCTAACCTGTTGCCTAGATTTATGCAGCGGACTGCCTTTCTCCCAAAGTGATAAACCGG…AGGTTGGTTTCACT; site = the 11-nt donor
Output label 1 for recombinant UMI read abundance (log10) not less than 1; output label 0 otherwise.

>>> print(df.to_string())
                               sequencecode    label
0  CGTTTGGCATGGACCGGTTTTCCCGGTAATCCGTATTTGGT (site CGTTTGGCTAC)  label 1

Prompt: Test whether the sequence TCAGAGACATGGACCGGTTTTCCCGGTAATCCGTATTTGTG (site TCAGAGACTCC) records recombinant UMI read abundance (log10) of 1 or higher.
Response: label 0

Prompt: Entry CGGAAGTCATGGACCGGTTTTCCCGGTAATCCGTATTTGCC (site CGGTAGTCTGG) : is its recombinant UMI read abundance (log10) no less than 1?
Response: label 1

Prompt: Can GTATAGGCATGGACCGGTTTTCCCGGTAATCCGTATTTGTA (site GTATAGGCTTA) be said to have recombinant UMI read abundance (log10) at or above 1?
Response: label 1

Prompt: Decide: recombinant UMI read abundance (log10) of TCAGAGACATGGACCGGTTTTCCCGGTAATCCGTATTTGTG (site TCAGAGACTCG) >= 1?
Response: label 1

Prompt: Item AAGGTGTCATGGACCGGTTTTCCCGGTAATCCGTATTTGAC (site AACGTGTCTGT) with recombinant UMI read abundance (log10) of 1 or above?
Response: label 0

Prompt: Kindly determine if recombinant UMI read abundance (log10) recorded for GTACATGCATGGACCGGTTTTCCCGGTAATCCGTATTTGGT (site GTGCATGCTAC) is above or exactly 1.
Response: label 0

Prompt: Test whether the sequence GCCGATTCATGGACCGGTTTTCCCGGTAATCCGTATTTGCT (site GCCGATTCTAG) records recombinant UMI read abundance (log10) of 1 or higher.
Response: label 1

Prompt: Check the entry AGGTTCCCATGGACCGGTTTTCCCGGTAATCCGTATTTGTG (site TGGTTCCCTCA) : does recombinant UMI read abundance (log10) equal or exceed 1?
Response: label 0

* * *

# protocolText: recombinant UMI read abundance after kanamycin selection (control-corrected) (log10(CPM+1)); higher = more efficient recombination; extreme values may be limits of the assay; sequences stand for … in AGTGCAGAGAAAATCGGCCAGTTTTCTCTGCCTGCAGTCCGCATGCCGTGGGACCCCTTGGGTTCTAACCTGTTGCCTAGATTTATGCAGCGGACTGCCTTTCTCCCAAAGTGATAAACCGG…AGGTTGGTTTCACT; site = the 11-nt donor
Below, each of the sequences is paired with its reported recombinant UMI read abundance (log10) value.
Output: the number by itself.

As a guide, the following entries are already answered.
>>> df
                               sequencecode  measvalue
0  GTTCGAGCATGGACCGGTTTTCCCGGTAATCCGTATTTGCC (site GTTCGAGCTAG)      0.379
1  TTCTTAGCATGGACCGGTTTTCCCGGTAATCCGTATTTGTT (site TTCTTAGCTAA)     0.0119
2  GATTGGACATGGACCGGTTTTCCCGGTAATCCGTATTTGAC (site GATGGGACTGT)          0

Prompt: Give the reported recombinant UMI read abundance (log10) for this sequence. AGCGCAGCATGGACCGGTTTTCCCGGTAATCCGTATTTGGG (site AGCACAGCTCC)
Response: 0

Prompt: Output measured recombinant UMI read abundance (log10) for this item: TCTAATACATGGACCGGTTTTCCCGGTAATCCGTATTTGGC (site TCTAATACTGC)
Response: 0

Prompt: Provide recombinant UMI read abundance (log10) value for the following sequence: AAAGTCACATGGACCGGTTTTCCCGGTAATCCGTATTTGGG (site TAAGTCACTCC)
Response: 0.158

* * *

# protocolText: recombinant barcode read abundance after kanamycin selection (control-corrected) (log10(CPM+1)); higher = more efficient recombination; sequences stand for … in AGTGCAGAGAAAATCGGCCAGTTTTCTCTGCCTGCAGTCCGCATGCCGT…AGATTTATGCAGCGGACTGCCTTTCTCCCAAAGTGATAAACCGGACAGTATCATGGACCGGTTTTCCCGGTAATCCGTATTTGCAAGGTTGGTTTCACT; site = the 11-nt target
Lab note: anything with recombinant barcode read abundance (log10) at or over 0.2 counts as met; the rest go in not met.

Consider the following illustrative entries.
                               sequencecode    label
0  AGAGTGACTTGGGTTCTAACCTGTTGCCT (site AGAGTGACTAG)      met
1  GAATCGACTTGGGTTCTAACCTGTTGCCT (site AGGGTACCTCT)  not met
2  CTTCGGACTTGGGTTCTAACCTGTTGCAA (site CTTCGGGCTTT)      met
3  TAGTGTACTTGGGTTCTAACCTGTTGCCT (site TAGTGTACTAG)      met

Switching to the query record.
Prompt: Dear colleague, could you confirm whether AATGGGGCTTGGGTTCTAACCTGTTGCAG (site CGGCCACCTAA) has recombinant barcode read abundance (log10) at or above 0.2?
Response: not met

* * *

# protocolText: recombinant UMI read abundance after kanamycin selection (control-corrected) (log10(CPM+1)); higher = more efficient recombination; extreme values may be limits of the assay; sequences stand for … in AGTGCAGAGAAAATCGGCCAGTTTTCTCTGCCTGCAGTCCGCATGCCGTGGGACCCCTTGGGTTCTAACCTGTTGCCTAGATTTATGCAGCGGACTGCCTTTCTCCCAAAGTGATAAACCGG…AGGTTGGTTTCACT; site = the 11-nt donor
Recorded recombinant UMI read abundance (log10), one value per entry.
Respond numerically, and do not add a unit to the figure.

Here are 3 sequences together with their reported answers.
In [3]: df
Out[3]:
                               sequencecode  measvalue
0  ATCCAAGCATGGACCGGTTTTCCCGGTAATCCGTATTTGAA (site ATCCAAGCTAT)      0.379
1  AGCCTTTCATGGACCGGTTTTCCCGGTAATCCGTATTTGAC (site AACCTTTCTGT)          0
2  ATTTGAGCATGGACCGGTTTTCCCGGTAATCCGTATTTGCG (site ATTTGAGCTCG)      0.336

Continue with the next sequence.
Prompt: Give the measured recombinant UMI read abundance (log10) for TTATCTGCATGGACCGGTTTTCCCGGTAATCCGTATTTGAT (site TTATCTGCTAT)
Response: 0.557

* * *

# protocolText: recombinant UMI read abundance after kanamycin selection (control-corrected) (log10(CPM+1)); higher = more efficient recombination; extreme values may be limits of the assay; sequences stand for … in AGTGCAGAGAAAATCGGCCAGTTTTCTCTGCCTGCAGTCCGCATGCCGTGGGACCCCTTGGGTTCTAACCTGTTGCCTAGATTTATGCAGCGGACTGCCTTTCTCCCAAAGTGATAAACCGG…AGGTTGGTTTCACT; site = the 11-nt donor
# key: entry, value: recombinant UMI read abundance (log10)
// keep it numeric: no unit symbol after the value

Prompt: State its recombinant UMI read abundance (log10): GTTCCAACATGGACCGGTTTTCCCGGTAATCCGTATTTGTA (site GATCCAACTTA)
Response: 0.0199

The values you see were collected from the supplement of paper PMC11208160.
